Biological target: ROCK2 (Homo sapiens)
Sequence (O75116 whole entry, species assumed): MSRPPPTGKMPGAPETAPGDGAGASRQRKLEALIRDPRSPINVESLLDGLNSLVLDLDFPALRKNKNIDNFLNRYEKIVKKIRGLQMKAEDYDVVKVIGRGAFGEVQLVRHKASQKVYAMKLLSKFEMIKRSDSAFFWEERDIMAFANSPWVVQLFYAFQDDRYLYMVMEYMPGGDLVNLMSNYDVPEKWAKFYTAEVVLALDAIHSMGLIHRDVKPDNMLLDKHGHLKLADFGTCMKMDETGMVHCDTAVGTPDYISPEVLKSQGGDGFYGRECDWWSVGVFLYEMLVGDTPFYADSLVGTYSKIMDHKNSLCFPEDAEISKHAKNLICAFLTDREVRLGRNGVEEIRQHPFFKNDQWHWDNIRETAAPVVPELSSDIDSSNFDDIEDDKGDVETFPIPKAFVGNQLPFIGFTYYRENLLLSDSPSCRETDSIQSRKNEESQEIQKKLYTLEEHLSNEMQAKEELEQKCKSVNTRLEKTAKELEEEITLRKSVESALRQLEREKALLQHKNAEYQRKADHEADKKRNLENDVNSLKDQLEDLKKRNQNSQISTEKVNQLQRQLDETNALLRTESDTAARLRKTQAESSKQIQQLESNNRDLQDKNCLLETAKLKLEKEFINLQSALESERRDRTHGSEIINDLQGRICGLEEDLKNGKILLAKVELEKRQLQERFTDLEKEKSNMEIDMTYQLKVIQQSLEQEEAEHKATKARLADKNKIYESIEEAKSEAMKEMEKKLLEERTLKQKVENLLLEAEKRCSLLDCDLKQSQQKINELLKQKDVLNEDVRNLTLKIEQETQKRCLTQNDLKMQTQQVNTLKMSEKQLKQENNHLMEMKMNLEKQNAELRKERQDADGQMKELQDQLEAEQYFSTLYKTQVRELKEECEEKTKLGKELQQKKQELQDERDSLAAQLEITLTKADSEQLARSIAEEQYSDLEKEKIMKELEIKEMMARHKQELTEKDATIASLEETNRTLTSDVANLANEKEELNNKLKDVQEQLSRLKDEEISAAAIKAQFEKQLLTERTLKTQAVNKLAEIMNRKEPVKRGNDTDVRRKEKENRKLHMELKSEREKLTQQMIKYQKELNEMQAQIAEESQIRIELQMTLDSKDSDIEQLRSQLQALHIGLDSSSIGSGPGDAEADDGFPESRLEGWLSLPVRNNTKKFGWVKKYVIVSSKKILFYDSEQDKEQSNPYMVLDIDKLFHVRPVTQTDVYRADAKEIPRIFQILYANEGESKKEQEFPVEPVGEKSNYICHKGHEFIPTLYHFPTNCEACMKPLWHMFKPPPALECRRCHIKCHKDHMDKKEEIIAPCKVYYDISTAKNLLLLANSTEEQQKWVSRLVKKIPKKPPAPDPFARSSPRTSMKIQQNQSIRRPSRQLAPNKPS
Assay: ROCK2 kinase inhibition assay (LABCHIP 3000 Reader, FITC peptide substrate);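 also: rho kinase reaction read by separating phosphorylated from unphosphorylated peptide on chip, with inhibition of kinase activity computed per concentration across a dose-response series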
Details: read-out: ROCK2 Activity (ROCK2 IC50); 5 μM ATP, 1.5 μM peptide substrate, pH 7.5
pIC50: −log10 of the molar value. Counter-ions that a name gives are not always drawn.
measuredMetric: pIC50

{"molecule": "NC(=O)c1cccnc1OC1CC2(CC(NC(=O)c3cc(Br)cc(C(F)(F)F)c3)C2)C1 (stereo not shown)", "systemTested": "ROCK2 (Homo sapiens)", "measuredMetric": "pIC50", "result": "7.30 to 8.30"}
{"molecule": "Cn1cc(-c2ccc3c(C(=O)NC4CC5(C4)CC(Oc4ncccc4C(N)=O)C5)nc(C(F)F)n3c2)cn1 (stereo not shown)", "systemTested": "ROCK2 (Homo sapiens)", "measuredMetric": "pIC50", "result": "> 8.30"}
{"molecule": "Cc1nn(Cc2ccc(F)cc2)cc1C(=O)NC1CC2(C1)CC(Oc1ncccc1C(N)=O)C2 (stereo not shown) [Example 382, trifluoroacetic acid salt]", "systemTested": "ROCK2 (Homo sapiens)", "measuredMetric": "pIC50", "result": "7.30 to 8.30"}
{"molecule": "CC(=O)N(C)Cc1ccc2c(C(=O)NC3CC4(C3)CC(Oc3ncccc3C(N)=O)C4)nc(C(F)F)n2c1 (stereo not shown)", "systemTested": "ROCK2 (Homo sapiens)", "measuredMetric": "pIC50", "result": "7.30 to 8.30"}
{"molecule": "Cn1cc2c(C(=O)NC3CC4(C3)CC(Oc3ncccc3C(N)=O)C4)cc(Br)cc2n1 (stereo not shown)", "systemTested": "ROCK2 (Homo sapiens)", "measuredMetric": "pIC50", "result": "7.30 to 8.30"}
{"molecule": "NC(=O)c1cccnc1OC1CC2(CC(NC(=O)c3nc(N)nc4ccccc34)C2)C1 (stereo not shown) [Example 461, TFA]", "systemTested": "ROCK2 (Homo sapiens)", "measuredMetric": "pIC50", "result": "6.60 to 7.30"}
{"molecule": "NC(=O)c1cccnc1OC1CC2(CC(NC(=O)c3nc(Br)n4ccccc34)C2)C1 (stereo not shown)", "systemTested": "ROCK2 (Homo sapiens)", "measuredMetric": "pIC50", "result": "7.30 to 8.30"}
